Overview of recorded normalized growth for various compounds
- test_protocol: chemical genetic growth profiling, strain panel (AID 1159580);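 also: tested at 20 µM; growth read once vehicle control cultures reached saturation at 30 °C; 1 = growth at the plate median or of vehicle wells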
- recorded_conditions: S. cerevisiae deletion strains, growth OD, locus YMR219W, strain ESC1, stronger effect = lower value
Among all 5,500 compounds or so, about 2,000 (36%) were called active. Roughly 18% stayed inconclusive and do not appear here. The list shows a part of the results.

mol | normalized growth
Cc1onc(-c2ccccc2Cl)c1C(=O)Nc1ccc(S(=O)(=O)Nc2nccs2)cc1 | 0.999 (inactive)
O=C(Nc1ccc(Cl)cc1Cl)c1cnccn1 | 0.99 (inactive)
Cc1onc(-c2ccccc2Cl)c1C(=O)Nc1ccc2c(c1)OCO2 | 1 (inactive)
CSc1nc2ccc(NC(=O)c3c(-c4ccccc4)noc3C)cc2s1 | 1 (inactive)
CCOC(=O)c1c(N=Cc2cc(Br)c(Br)cc2O)sc2c1CCCC2 | 0.83 (active)
CCOC(=O)CC(=O)Nc1scc(C)c1C(=O)OCC | 0.968 (inactive)

* * *

- test_protocol: chemical genetic growth profiling, strain panel (AID 1159580);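 also: tested at 20 µM; growth read once vehicle control cultures reached saturation at 30 °C; 1 = growth at the plate median or of vehicle wells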
- recorded_conditions: S. cerevisiae deletion strains, growth OD, locus YJL095W, strain BCK1 (second series), stronger effect = lower value
Out of some 5,500 compounds screened, about 2,000 (36%) were called active. About 18% were inconclusive and are not listed. The list shows a part of the results.

compound | normalized growth
O=C1N=C(O)CN1/N=C\c1ccc(-c2ccc([N+](=O)[O-])cc2)o1 | 0.993
COc1ccc(/C=C/C(=O)O)cc1OC | 0.981
CCCc1cc(OC)c2c(c1)OCO2 | 1
CC12CCC(CC1)C(C)(C)O2 | 0.97
COc1ccc(C[C@H](N)C(=O)N[C@@H]2[C@@H](CO)OC(n3cnc4c(N(C)C)ncnc43)[C@@H]2O)cc1 (some centres undefined) | 1
CC1(C)C2CC(=O)O[C@@]3(C)C4=CC(=O)O[C@@H](c5ccoc5)[C@]4(C)CCC3[C@@]2(C)C=C[C@H]1O (some centres undefined) | 0.982
O=C1OCCN1/N=C\c1ccc([N+](=O)[O-])o1 | 1.02
CC[C@]12CCCN3CCc4c(n(c5ccccc45)[C@](O)(C(=O)OC)C1)[C@@H]32 | 0.973
CCn1cc(C(=O)O)c(=O)c2cnc(N3CCNCC3)nc21 | 1
CC[C@@H]1[C@@H](O)N2C3C[C@H]1C1C(O)[C@]4(C[C@@H]12)c1ccccc1N(C)[C@@H]34 (some centres undefined) | 1.01
CC(Cc1ccc(O)c(O)c1)(NN)C(=O)O (centres undefined) | 0.996
CCOC(=O)C1=C[C@]2(CC)CCCN3CCc4c(n1c1ccccc41)[C@@H]32 | 1.01
Nc1c(Br)cc(Br)cc1CNC1CCC(O)CC1 (centres undefined) | 0.98
CC[C@]12CCCN3CCc4c(n(c5ccccc45)C(=O)C1)[C@@H]32 | 0.996
COc1cc2c(cc1O)CC1c3c(cc(O)c(OC)c3-2)CCN1C (centres undefined) | 0.988
CN(Cc1cc(Br)cc(Br)c1N)C1CCCCC1 | 1.02
CCn1cc(C(=O)O)c(=O)c2cnc(N3CCCC3)nc21 | 1
Nc1nc2c(c(=O)[nH]1)N(C=O)C(CNc1ccc(C(=O)N[C@@H](CCC(=O)O)C(=O)O)cc1)CN2 (some centres undefined) | 0.967
CCC(COC(=O)c1cc(OC)c(OC)c(OC)c1)(c1ccccc1)N(C)C (centres undefined) | 0.981
c1ccc2[nH]c(-c3cscn3)nc2c1 | 1.02
NC(=O)N/N=C\c1ccc([N+](=O)[O-])o1 | 0.992
O=c1cccc2n1C[C@H]1CNCC2C1 | 1
CCCNC(C)C(=O)Nc1ccccc1C (centres undefined) | 1.01
CCCCC(CC)CN=C(N)NC(N)=NCCCCCCN=C(N)NC(N)=NCC(CC)CCCC (centres undefined) | 0.0569
O=C(NC(=O)c1c(F)cccc1F)Nc1cc(Cl)c(OC(F)(F)C(F)C(F)(F)F)cc1Cl (centres undefined) | 0.986
CCCN(CCC)CCc1cccc2c1CC(=O)N2 | 0.972
c1ccc(-c2ccc(C(c3ccccc3)n3ccnc3)cc2)cc1 (centres undefined) | 0.0592
Nc1ccc(S(=O)(=O)Nc2nccs2)cc1 | 1.02
O=C(O)c1ccc2c(c1)OCO2 | 1.02
O=C(NC(Cc1cc(=O)[nH]c2ccccc12)C(=O)O)c1ccc(Cl)cc1 (centres undefined) | 0.997
COc1ccc2c(c1O)-c1c(OC)c(OC)cc3c1[C@H](C2)N(C)CC3 | 0.995
COc1cc(/C=C/C(=O)O)cc(OC)c1OC | 0.994
Nc1nc2ncc(CNc3ccc(C(=O)N[C@@H](CCC(=O)O)C(=O)O)cc3)nc2c(=O)[nH]1 | 0.992
CC(=O)OCC(=O)[C@@]12OC(C)(C)O[C@@H]1CC1C3C[C@H](F)C4=CC(=O)C=C[C@]4(C)[C@@]3(F)[C@@H](O)C[C@@]12C (some centres undefined) | 1.02
NC(=O)c1cc[n+](CC2=C(C(=O)O)N3C(=O)C(NC(=O)C(c4ccccc4)S(=O)(=O)[O-])C3SC2)cc1 (centres undefined) | 0.99
NC(=O)c1cnccn1 | 0.995
C[C@@H]1CC2C3CCC4=CC(=O)C=C[C@]4(C)[C@@]3(F)[C@@H](O)C[C@]2(C)[C@@]1(O)C(=O)COP(=O)(O)O (some centres undefined) | 0.982
C[C@](N)(Cc1ccc(O)cc1)C(=O)O | 0.997
CC(=O)O[C@H]1C[C@@H](OC(C)=O)C(C)(C)C2C[C@@H](OC(C)=O)[C@]3(C)C(CC[C@@]4(C)[C@H](c5ccoc5)C(=O)[C@H]5O[C@]543)[C@]21C (some centres undefined) | 1
CCOP(=S)(OCC)Oc1ccc2c(C)c(Cl)c(=O)oc2c1 | 0.96
C=CCc1cc(OC)c2c(c1OC)OCO2 | 0.879
COc1ccc(-c2cc(C(F)F)nn2-c2ccc(S(N)(=O)=O)cc2)cc1F | 0.997
NCCCCN=C(N)N | 1.03
O=C(O)c1cc(O)c(O)c(O)c1 | 1.03

* * *

- test_protocol: chemical genetic growth profiling, strain panel (AID 1159580);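 also: tested at 20 µM; growth read once vehicle control cultures reached saturation at 30 °C; 1 = growth at the plate median or of vehicle wells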
- recorded_conditions: S. cerevisiae deletion strains, growth OD, locus YDL185W, strain tfp1
Among all 5,500 compounds or so, about 2,000 (36%) were called active. Another 18% or so got no clear call; they are omitted. No stated cut-off is given here; in the data, active means normalized growth mostly below about 0.91 (no sharp cut-off); inconclusive means no clear call, values can overlap the other calls; inactive means mostly above about 0.92. The list shows a part of the results.
Outcome codes: active, inactive

compound | group_label
NC(=O)c1cc[n+](CC2=C(C(=O)O)N3C(=O)C(NC(=O)C(c4ccccc4)S(=O)(=O)[O-])C3SC2)cc1 (centres undefined) | inactive
COc1cc(C(=O)O)cc(OC)c1O | inactive
CC1=C(/C=C/C(C)=C/C=C/C(C)=C/CO)C(C)(C)CCC1 | inactive
CC[C@@]1(C2O[C@@H](C3O[C@@](O)(CC)[C@H](C)C[C@@H]3C)C[C@@H]2C)CC[C@H]([C@]2(C)CCC3(C[C@H](O)[C@@H](C)[C@@H]([C@H](C)[C@@H](OC)[C@H](C)C(=O)O)O3)O2)O1 (some centres undefined) | inactive
C[C@H](COc1ccccc1)N[C@H](C)[C@H](O)c1ccc(O)cc1 | inactive
CC1=CC(=O)CC(C)(C)C1(O)/C=C/C(C)=C\C(=O)O (centres undefined) | inactive
CCn1cc(C(=O)O)c(=O)c2cnc(N3CCNCC3)nc21 | inactive
CC1(C)C2CC(=O)O[C@@]3(C)C4=CC(=O)O[C@@H](c5ccoc5)[C@]4(C)CCC3[C@@]2(C)C=C[C@H]1O (some centres undefined) | inactive
CC1=C(/C=C/C(C)=C/C=C/C(C)=C/C(=O)O)C(C)(C)CCC1 | inactive
CC1=C(/C=C/C(C)=C/C=C/C(C)=C\C(=O)O)C(C)(C)CCC1 | inactive
CCC(CCC(C)C1CCC2C3CC=C4C[C@@H](OC(C)=O)CC[C@]4(C)C3CC[C@]12C)C(C)C (some centres undefined) | inactive
CCOC(N)=O | inactive
CC(=O)OC/C=C(C)/C=C/C=C(C)/C=C/C1=C(C)CCCC1(C)C | inactive
C[C@@]12C(=O)OC(=O)[C@]1(C)C1CCC2O1 | active
CCn1cc(C(=O)O)c(=O)c2cnc(N3CCCC3)nc21 | inactive
O=C(O)c1cc(O)c(O)c(O)c1 | inactive
O=c1cccc2n1C[C@H]1CNCC2C1 | inactive
C[C@@H]1CC2C3CCC4=CC(=O)C=C[C@]4(C)[C@@]3(F)[C@@H](O)C[C@]2(C)[C@@]1(O)C(=O)COP(=O)(O)O (some centres undefined) | inactive
CC[C@@H](C(=O)[C@@H](C)[C@@H](O)[C@H](C)[C@@H]1O[C@@H]([C@@H](CC)C(=O)O)CC[C@@H]1C)[C@H]1OC2(C=C[C@@H](O)[C@]3(CC[C@@](C)([C@H]4CC[C@](O)(CC)[C@H](C)O4)O3)O2)[C@H](C)C[C@@H]1C (some centres undefined) | inactive
